tested on: Hs-578T; test: NCI tumour cell line growth inhibition, 48 h
Activity calls are given as the source filed them. No stated cut-off is given here; in the data, active = GI50 up to about 1.1 µM and inactive = higher. Where a SMILES comes first, the peptide text is derived from it. The star is where a group is joined. Boc = CC(C)(C)OC(=O)*
Returns: one label drawn from active, inactive

Status in this test for COc1cccc(C2c3cc4c(cc3OC(N3CCOCC3)C2C)OCO4)c1OC (stereo unspecified) ?
inactive

Identify the outcome logged in this assay for the molecule shown: Nc1nc2c(c(-c3cccc(Cl)c3)n1)COC/C2=C\c1cccc(Cl)c1
inactive

What was the test verdict on CCOc1ccc(/N=N/c2ccc(-c3ccc(/N=N/c4c(O)ccc5cc(S(=O)(=O)O)cc(S(=O)(=O)O)c45)cc3)cc2)cc1 ?
inactive

Which outcome was entered for the molecule COc1c2ccoc2c(OC)c2oc(=O)ccc12 in this test?
inactive

GET /call?item= CC(C)C1OC(N)=C(C#N)C1(C#N)C#N (stereo unspecified) returns the recorded outcome of this test.
inactive

How did this test come out for CCOC(=O)C(NNS(=O)(=O)c1ccc(C)cc1)S(=O)(=O)C(F)(F)C(F)(F)C(F)(F)C(F)(F)F (stereo unspecified) ?
inactive

Give the logged outcome of this assay for the following molecule: CN1C(=O)C(O)CC1c1ccc(C(F)(F)F)cc1 (stereo unspecified)
inactive

Any idea what this test logged for COc1cc2c(cc1-c1coc3cc(OCC=C(C)C)ccc3c1=O)OCO2 ?
inactive

Record lookup: outcome of this test for O=C(O)c1c(O)c2cc(Br)ccc2oc1=O ?
inactive

Given COC(=O)c1cc2c(o1)Sc1ccccc1NC2=O , state the outcome it received in this test.
inactive

Please let me know the test result on file for CC1=C(C)SC(=C2Sc3c(n(C)c(=O)n(C)c3=O)S2)S1 .
inactive

Outcome? CC1(C)CC(=O)C(CC(C(=O)C(=O)Nc2cc(C(F)(F)F)ccc2Cl)C(=O)c2ccco2)C(=O)C1 (stereo unspecified)
inactive

Hi team, can someone confirm the assay call for C=C1CC=CC(C)(C)C1C/C=C(\C)C(O)CBr (stereo unspecified) ?
inactive

For this molecule, state the assay outcome: S=C(c1c[nH]c2ccccc12)N1CCCCC1
inactive

Dear colleague, could you share the recorded outcome for O=C(Nc1ccc(N2C(=O)CSC2c2ccccc2O)cc1)c1ccc(N2C(=O)CSC2c2ccccc2O)cc1 (stereo unspecified) when you have a moment?
inactive

Test call, this molecule: CC1=CC2C(C(C)C)CC1C1C(=O)OC(=O)C21 (stereo unspecified)
inactive

Which result was noted for this molecule in the test: CN(C)CCNC(=O)c1cccc2c(NC(CCCNC(=N)N)C(=O)O)c3ccccc3nc12 (stereo unspecified)
inactive

Given CC1(C)OCC2OC3(c4nc(C#N)c(N)o4)OC(C)(C)OC3C2O1 (stereo unspecified) , state the outcome it received in this test.
inactive

What was the test verdict on NC(=O)C[C@H](NC(=O)C1(NC(=O)[C@H](Cc2ccc(CP(=O)(O)O)cc2)NC(=O)C(=O)O)CCCCC1)C(=O)NCCCc1cccc2ccccc12 ?
inactive

Any idea what this test logged for Oc1ccccc1CNCc1nc2ccccc2[nH]1 ?
inactive

Short answer needed: outcome of this test for O=C(O)CN(CC(=O)O)C1CCCCC1N1CC(=O)OC(=O)C1 (stereo unspecified) ?
inactive

Per the assay record, what outcome was assigned to Clc1c(Cl)c(Cl)c2nn(C3CCCO3)nc2c1Cl (stereo unspecified) ?
inactive

Can you look up the reported call for Cn1ccnc1Sc1ccc(/C=N/NC(=O)c2ccccc2O)cc1[N+](=O)[O-] for me?
inactive

For CC(C)[C@H](NC(=O)[C@H](N)Cc1ccc(N(CCCl)CCCl)cc1)C(=O)O , what call appears in the results of this test?
inactive

Called result for COc1ccc2nc3cccc([N+](=O)[O-])c3c(NCCN(C)C)c2c1
active

Assay outcome for O=C(/C=C/c1ccc2ccccc2c1)NCc1ccc(C(=O)NCc2ccccc2)cc1 : what was it?
inactive

Please share the test call associated with O=C(O)c1ccc(Nc2nc3ccccc3nc2C(=O)O)cc1 .
inactive

Query: recorded result category for Cc1cccc2c(N)c3cccc(C(=O)NCC[N+](C)(C)Cc4ccc([N+](=O)[O-])s4)c3nc12 in this test
inactive

Just curious, what result did O=C1c2scc(-c3ccc(F)cc3)c2-n2cccc21 get here?
inactive

State the result this test recorded for COc1ccc(/C=N/CCC/N=C/c2ccc(OC)cc2O)c(O)c1 .
inactive

Hello, I am checking results. What call was entered for C=CCOC(=O)/C(=C\c1ccc(OC)c(OC)c1)c1ccc(OC)c(OC)c1 ?
inactive

Fill in: this test's call for CC(=O)Nc1sccc1S(=O)(=O)c1ccc(Cl)cc1 is ___
inactive

// return assay outcome for COC(=O)C(Cc1c[nH]c2ccccc12)NC(=O)C(Cc1c[nH]c2ccccc12)NC(=O)C(Cc1c[nH]c2ccccc12)NC(=O)OC(C)(C)C (stereo not drawn) (Boc-Trp-Trp-Trp-OMe; configuration not given here)
inactive

Write down the call the test reported for this molecule. Item: CC(=O)NNc1nc(C)c(C(/C=C/c2ccccc2O)=N/NC(=O)c2ccncc2)s1
inactive

Hello, I am checking results. What call was entered for CCOC(=O)c1c(C)n(-c2ccc(Cl)cc2)c2c1cc(O)c1[nH]c3c(c12)CCCC3 ?
inactive

Status in this test for CCc1n[nH]c(=O)n1NC(=O)CCCC(=O)O ?
inactive

Test call, this molecule: [N-]=[N+]=NCC1OCC(O)C(OCc2ccccc2)C1OCc1ccccc1 (stereo unspecified)
inactive

Could you please tell me the result logged for CC1(C)CC(=O)C(=CNC(N)=S)C(=O)C1 in this assay?
inactive

Would you mind telling me which call this test gave C=CCCCC1(C)CCCCNC1=O (stereo unspecified) ?
inactive

Record lookup: outcome of this test for COC(=O)C(=O)C(C(=O)C(=O)Nc1nc2ccc(C)cc2s1)c1nc2ccc([N+](=O)[O-])cc2nc1O (stereo unspecified) ?
inactive

I would be grateful if you could indicate the recorded call for CCN(CC)C(=S)SNCc1ccc(S(N)(=O)=O)cc1 .
inactive
